Hey, just so you know, these numbers are from ChEMBL document CHEMBL1149761.

Tested on: Staphylococcus aureus
procedure_details: Antibacterial activity against Staphylococcus aureus NRRL B-767 by microdilution broth susceptibility assay
Type: functional
property_measured: MIC (µg/mL)
One number for each entry, in µg/mL.

>>> df
                                test_smiles   unit  recorded_value
0  CN(C)c1ccc(/C=N/n2c(Cc3c[nH]c4ccccc34)n[nH]c2=S)cc1  µg/mL             250
1  O=[N+]([O-])c1ccc(C2=Nn3c(Cc4c[nH]c5ccccc45)nnc3SC2)cc1  µg/mL             125
2  S=c1[nH]nc(Cc2c[nH]c3ccccc23)n1/N=C/c1ccccc1  µg/mL             125

Hi there! I need MIC for each item below, if you can.
1. O=C(N[C@H](CO)[C@H](O)c1ccc([N+](=O)[O-])cc1)C(Cl)Cl
2. Cc1ccc(/C=N/n2c(Cc3c[nH]c4ccccc34)n[nH]c2=S)cc1
3. O=[N+]([O-])c1ccc(/C=N/n2c(Cc3c[nH]c4ccccc34)n[nH]c2=S)cc1
4. S=c1[nH]nc(Cc2c[nH]c3ccccc23)n1/N=C/c1ccc(Cl)cc1
5. Clc1ccc(C2=Nn3c(Cc4c[nH]c5ccccc45)nnc3SC2)cc1
6. CN(C)c1ccc(C2=Nn3c(Cc4c[nH]c5ccccc45)nnc3SC2)cc1

62.5
125
250
125
125
250

Hi there! I need MIC for each item below, if you can.
1. Cc1ccc(C2=Nn3c(Cc4c[nH]c5ccccc45)nnc3SC2)cc1
2. c1ccc(C2=Nn3c(Cc4c[nH]c5ccccc45)nnc3SC2)cc1

[125, 62.5]
